Provenance of the data: PubChem BioAssay AID2060505

Attribute: IC50
# Test system: 633275-114-R-J1-PDC complex spheroids, viability
# measurementNotes: Anticancer human tumor 633275-114-R-J1-PDC patient-derived endometrial adenocarcinoma cell line growth inhibition [GQUAD]
# testParameters: curve of first compound; second compound 0.316 µM

[
  {
    "molecule": "Cn1ncnc1[C@H]1c2n[nH]c(=O)c3cc(F)cc(c23)N[C@@H]1c1ccc(F)cc1 + Cc1[nH]c2ccc(F)cc2c1-c1nc2c3cccnc3c3ncccc3c2[nH]1",
    "IC50": "> 316 nM"
  },
  {
    "molecule": "CC(=O)O[C@H]1C(=O)[C@@]2(C)[C@H]([C@H](OC(=O)c3ccccc3)[C@]3(O)C[C@H](OC(=O)[C@H](O)[C@@H](NC(=O)c4ccccc4)c4ccccc4)C(C)=C1C3(C)C)[C@]1(OC(C)=O)CO[C@@H]1C[C@@H]2O + Cc1[nH]c2ccc(F)cc2c1-c1nc2c3cccnc3c3ncccc3c2[nH]1",
    "IC50": "< 31.6 nM"
  },
  {
    "molecule": "Nc1ccn(C2OC(CO)C(O)C2(F)F)c(=O)n1 (stereo not given) + CN(C)c1ccc(Nc2c3ccc(NC(=O)CCN4CCCC4)cc3nc3cc(NC(=O)CCN4CCCC4)ccc23)cc1",
    "IC50": "< 31.6 nM"
  },
  {
    "molecule": "CCCS(=O)(=O)Nc1ccc(F)c(C(=O)c2c[nH]c3ncc(-c4ccc(Cl)cc4)cc23)c1F + Cc1[nH]c2ccc(F)cc2c1-c1nc2c3cccnc3c3ncccc3c2[nH]1",
    "IC50": "8580 nM"
  },
  {
    "molecule": "C=CC(=O)N1CCN(c2nc(=O)n(-c3c(C)ccnc3C(C)C)c3nc(-c4c(O)cccc4F)c(F)cc23)C(C)C1 (stereo not given) + CN(C)c1ccc(Nc2c3ccc(NC(=O)CCN4CCCC4)cc3nc3cc(NC(=O)CCN4CCCC4)ccc23)cc1",
    "IC50": "> 10000 nM"
  },
  {
    "molecule": "COc1ncnc(C2CC2)c1-c1ncc2cnn(Cc3ccc(-c4nc(C(F)(F)F)cn4C(C)C)cc3)c2n1 + Cc1[nH]c2ccc(F)cc2c1-c1nc2c3cccnc3c3ncccc3c2[nH]1",
    "IC50": "> 10000 nM"
  },
  {
    "molecule": "COc1ccc([C@@H](O)c2cc(-c3ncnc4cc(N5CCOCC5)ccc34)c(F)cc2Cl)nn1 + CN(C)c1ccc(Nc2c3ccc(NC(=O)CCN4CCCC4)cc3nc3cc(NC(=O)CCN4CCCC4)ccc23)cc1",
    "IC50": "2640 nM"
  },
  {
    "molecule": "CC(C)(O)C1CCC(Nc2ccc3ncc(-c4cccc(C(F)(F)F)c4)n3n2)CC1 (stereo not given) + CN(C)c1ccc(Nc2c3ccc(NC(=O)CCN4CCCC4)cc3nc3cc(NC(=O)CCN4CCCC4)ccc23)cc1",
    "IC50": "2090 nM"
  },
  {
    "molecule": "Cc1[nH]c2ccccc2c1CCNCc1ccc(/C=C/C(=O)NO)cc1 + Cc1cnc(CNC(=O)c2c(=O)c3ccc(N4CCCN(C)CC4)nc3n3c2sc2ccccc23)cn1",
    "IC50": "< 0.999 nM"
  },
  {
    "molecule": "COc1cc(C2c3cc4c(cc3C(OC3OC5COC(C)OC5C(O)C3O)C3COC(=O)C23)OCO4)cc(OC)c1O (stereo not given) + CN(C)c1ccc(Nc2c3ccc(NC(=O)CCN4CCCC4)cc3nc3cc(NC(=O)CCN4CCCC4)ccc23)cc1",
    "IC50": "296 nM"
  }
]

###

# Tested on: 633275-114-R-J1-PDC complex spheroids, viability
# measurementNotes: Anticancer human tumor 633275-114-R-J1-PDC cell line growth inhibition [GQUAD];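 also: spheroids exposed to the agents for seven days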;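 as to viability, T/C: percent of DMSO vehicle control viability which is 100%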
# testParameters: second compound 1 µM; first compound 10 µM; stronger effect = lower value
endpointName: viability, T/C (%)

[
  {
    "compound": "Nc1ccn(C2OC(CO)C(O)C2(F)F)c(=O)n1 (stereo not given) + CN(C)c1ccc(Nc2c3ccc(NC(=O)CCN4CCCC4)cc3nc3cc(NC(=O)CCN4CCCC4)ccc23)cc1",
    "resultUnits": "%",
    "assayResult": 19.6
  },
  {
    "compound": "C=CCn1c(=O)c2cnc(Nc3ccc(N4CCN(C)CC4)cc3)nc2n1-c1cccc(C(C)(C)O)n1 + CN(C)c1ccc(Nc2c3ccc(NC(=O)CCN4CCCC4)cc3nc3cc(NC(=O)CCN4CCCC4)ccc23)cc1",
    "resultUnits": "%",
    "assayResult": 15.7
  },
  {
    "compound": "COc1ccc([C@@H](O)c2cc(-c3ncnc4cc(N5CCOCC5)ccc34)c(F)cc2Cl)nn1 + Cc1cnc(CNC(=O)c2c(=O)c3ccc(N4CCCN(C)CC4)nc3n3c2sc2ccccc23)cn1",
    "resultUnits": "%",
    "assayResult": 11.1
  },
  {
    "compound": "O=c1[nH]cc(F)c(=O)[nH]1 + Cc1cnc(CNC(=O)c2c(=O)c3ccc(N4CCCN(C)CC4)nc3n3c2sc2ccccc23)cn1",
    "resultUnits": "%",
    "assayResult": 31.5
  },
  {
    "compound": "Nc1ccn(C2OC(CO)C(O)C2(F)F)c(=O)n1 (stereo not given) + Cc1cnc(CNC(=O)c2c(=O)c3ccc(N4CCCN(C)CC4)nc3n3c2sc2ccccc23)cn1",
    "resultUnits": "%",
    "assayResult": 19.4
  },
  {
    "compound": "CC(=O)O[C@H]1C(=O)[C@@]2(C)[C@H]([C@H](OC(=O)c3ccccc3)[C@]3(O)C[C@H](OC(=O)[C@H](O)[C@@H](NC(=O)c4ccccc4)c4ccccc4)C(C)=C1C3(C)C)[C@]1(OC(C)=O)CO[C@@H]1C[C@@H]2O + Cc1cnc(CNC(=O)c2c(=O)c3ccc(N4CCCN(C)CC4)nc3n3c2sc2ccccc23)cn1",
    "resultUnits": "%",
    "assayResult": 36.2
  },
  {
    "compound": "C=CC(=O)N1CCN(c2nc(=O)n(-c3c(C)ccnc3C(C)C)c3nc(-c4c(O)cccc4F)c(F)cc23)C(C)C1 (stereo not given) + Cc1cnc(CNC(=O)c2c(=O)c3ccc(N4CCCN(C)CC4)nc3n3c2sc2ccccc23)cn1",
    "resultUnits": "%",
    "assayResult": 41
  },
  {
    "compound": "CC1COCCN1c1cc(C2(S(C)(=N)=O)CC2)nc(-c2ccnc3[nH]ccc23)n1 (stereo not given) + Cc1cnc(CNC(=O)c2c(=O)c3ccc(N4CCCN(C)CC4)nc3n3c2sc2ccccc23)cn1",
    "resultUnits": "%",
    "assayResult": 27
  },
  {
    "compound": "O=C(NO)c1cnc(N2CCN(S(=O)(=O)c3ccc4ccccc4c3)CC2)nc1 + Cc1cnc(CNC(=O)c2c(=O)c3ccc(N4CCCN(C)CC4)nc3n3c2sc2ccccc23)cn1",
    "resultUnits": "%",
    "assayResult": 0.11
  },
  {
    "compound": "COc1cc(C2c3cc4c(cc3C(OC3OC5COC(C)OC5C(O)C3O)C3COC(=O)C23)OCO4)cc(OC)c1O (stereo not given) + Cc1[nH]c2ccc(F)cc2c1-c1nc2c3cccnc3c3ncccc3c2[nH]1",
    "resultUnits": "%",
    "assayResult": 30.8
  }
]

###

# Tested on: 633275-114-R-J1-PDC complex spheroids, viability
# measurementNotes: Anticancer human tumor 633275-114-R-J1-PDC cell line growth inhibition [GQUAD];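 also: spheroids exposed to the agents for seven days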
# testParameters: curve of first compound; second compound 1 µM

[
  {
    "compound": "COc1ncnc(C2CC2)c1-c1ncc2cnn(Cc3ccc(-c4nc(C(F)(F)F)cn4C(C)C)cc3)c2n1 + CN(C)c1ccc(Nc2c3ccc(NC(=O)CCN4CCCC4)cc3nc3cc(NC(=O)CCN4CCCC4)ccc23)cc1",
    "IC50": "> 10000 nM"
  },
  {
    "compound": "CC(C)n1c(=O)n(C)c2cnc3cc(F)c(-c4ccc(OCCCN5CCCCC5)nc4)cc3c21 + Cc1cnc(CNC(=O)c2c(=O)c3ccc(N4CCCN(C)CC4)nc3n3c2sc2ccccc23)cn1",
    "IC50": "< 31.6 nM"
  },
  {
    "compound": "COc1ccc([C@@H](O)c2cc(-c3ncnc4cc(N5CCOCC5)ccc34)c(F)cc2Cl)nn1 + Cc1cnc(CNC(=O)c2c(=O)c3ccc(N4CCCN(C)CC4)nc3n3c2sc2ccccc23)cn1",
    "IC50": "< 31.6 nM"
  },
  {
    "compound": "O=C(c1cc(Cc2n[nH]c(=O)c3ccccc23)ccc1F)N1CCN(C(=O)C2CC2)CC1 + Cc1cnc(CNC(=O)c2c(=O)c3ccc(N4CCCN(C)CC4)nc3n3c2sc2ccccc23)cn1",
    "IC50": "< 31.6 nM"
  },
  {
    "compound": "C#Cc1c(F)ccc2cc(O)cc(-c3ncc4c(N5CC6CCC(C5)N6)nc(OCC56CCCN5CC(F)C6)nc4c3F)c12 (stereo unspecified) + Cc1cnc(CNC(=O)c2c(=O)c3ccc(N4CCCN(C)CC4)nc3n3c2sc2ccccc23)cn1",
    "IC50": "< 31.6 nM"
  },
  {
    "compound": "CC1COCCN1c1cc(C2(S(C)(=N)=O)CC2)nc(-c2ccnc3[nH]ccc23)n1 (stereo unspecified) + Cc1cnc(CNC(=O)c2c(=O)c3ccc(N4CCCN(C)CC4)nc3n3c2sc2ccccc23)cn1",
    "IC50": "< 31.6 nM"
  }
]
